- measurement protocol: Pharmacokinetic study in mice
- Type: in vivo
- details: male, BALB/cAnC, mouse, plasma, iv admin 5 mg/kg
reported endpoint: Vd

Requested field: Vd. Item: COc1cccc(CC(=O)N[C@@H](Cc2ccc(C(F)(F)F)cc2)Cc2nnn[nH]2)c1 [Compound 16l]
0.4 L/kg

###

- target or test system: human FFA2-eYFP (Homo sapiens)
- Construct: expressed in transfected cells; host or cells: membranes of Flp-In T-Rex 293 cells induced to express the construct
- Sequence (O15552 whole entry): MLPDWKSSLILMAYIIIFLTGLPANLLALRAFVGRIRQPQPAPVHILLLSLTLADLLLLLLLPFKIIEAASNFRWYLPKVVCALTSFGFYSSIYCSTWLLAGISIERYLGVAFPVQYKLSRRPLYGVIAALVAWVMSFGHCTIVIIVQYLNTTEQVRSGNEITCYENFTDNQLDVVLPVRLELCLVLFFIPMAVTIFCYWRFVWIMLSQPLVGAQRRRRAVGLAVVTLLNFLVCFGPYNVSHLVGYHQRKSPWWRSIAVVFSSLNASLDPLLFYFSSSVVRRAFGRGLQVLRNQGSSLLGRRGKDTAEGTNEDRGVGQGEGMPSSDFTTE
- measurement protocol: [35S]GTPγS incorporation assay, membranes of Flp-In T-Rex 293 cells
- Assay type: biochemical
- details: hFFA2, propionate at EC80; mean ± SEM, three or more experiments
reported endpoint: GTPγS pIC50
Give the figure by itself; no unit, no explanation.

> print(dat)
                                   compound  numeric.value
1  O=C(Cc1cncc(Br)c1)N[C@@H](Cc1ccc(C(F)(F)F)cc1)Cc1nnn[nH]1 [Compound 16w]           8.21
2  O=C(Cc1ccccc1)N[C@@H](Cc1ccc(C(F)(F)F)cc1)Cc1nnn[nH]1 [Compound 16a]           8.36
3  O=C(Cc1cccc(F)c1)N[C@@H](Cc1ccccc1)Cc1nnn[nH]1 [Compound 16d]           7.47

Here is the next item to consider.
Dear colleague, I am looking for the recorded GTPγS pIC50 of the following compound: O=C(Cc1ccc(Cl)nc1)N[C@@H](Cc1ccc(C(F)(F)F)cc1)Cc1nnn[nH]1 [Compound 16v]
7.20

###

- target or test system: human FFA2-eYFP (Homo sapiens)
- Construct: expressed in transfected cells; host or cells: membranes of Flp-In T-Rex 293 cells induced to express the construct
- measurement protocol: [35S]GTPγS incorporation assay, membranes of Flp-In T-Rex 293 cells
- Assay type: biochemical
- details: hFFA2, propionate at EC80; mean ± SEM, three or more experiments
Entries whose GTPγS pIC50 is below 7 take 1; entries at or above 7 take -1.

Sample answers from the record:
> print(dat)
                                   molecule           target.or.test.system  assigned.category
1  O=C(Cc1cccc(C(F)(F)F)c1)N[C@@H](Cc1ccc(C(F)(F)F)cc1)Cc1nnn[nH]1 [Compound 16i]  human FFA2-eYFP (Homo sapiens)                 -1
2  O=C(Cc1cccc(Br)c1)N[C@@H](Cc1ccc(C(F)(F)F)cc1)Cc1nnn[nH]1 [Compound 16g]  human FFA2-eYFP (Homo sapiens)                 -1
3  O=C(Cc1cccc(I)c1)N[C@@H](Cc1ccc(C(F)(F)F)cc1)Cc1nnn[nH]1 [Compound 16h]  human FFA2-eYFP (Homo sapiens)                 -1
4  O=C(Cc1cccnc1)N[C@@H](Cc1ccc(C(F)(F)F)cc1)Cc1nnn[nH]1 [Compound 16s]  human FFA2-eYFP (Homo sapiens)                 -1
5  O=C(Cc1cccc(Cl)c1)N[C@H](CCc1nnn[nH]1)Cc1ccc(C(F)(F)F)cc1  human FFA2-eYFP (Homo sapiens)                 -1
6  CCOc1cccc(CC(=O)N[C@@H](Cc2ccc(C(F)(F)F)cc2)Cc2nnn[nH]2)c1 [Compound 16m]  human FFA2-eYFP (Homo sapiens)                 -1
7  O=C(Cc1cccc(F)c1)N[C@@H](Cc1ccc(C(F)(F)F)cc1)Cc1nnn[nH]1 [Compound 16c]  human FFA2-eYFP (Homo sapiens)                 -1
8  O=C(Cc1ccncc1)N[C@@H](Cc1ccc(C(F)(F)F)cc1)Cc1nnn[nH]1 [Compound 16t]  human FFA2-eYFP (Homo sapiens)                  1

Would you kindly verify if GTPγS pIC50 of O=C(Cc1ccc(Cl)cc1)N[C@@H](Cc1ccc(C(F)(F)F)cc1)Cc1nnn[nH]1 [Compound 16f] is strictly less than 7?
-1

Problem: For the molecule O=C(CC1CCCC1)N[C@@H](Cc1ccc(C(F)(F)F)cc1)Cc1nnn[nH]1 [Compound 16o] , is GTPγS pIC50 under 7?
1

Does the reported GTPγS pIC50 of the following molecule sit strictly below 7? O=C(O)C[C@H](Cc1ccc(C(F)(F)F)cc1)NC(=O)Cc1cccc(Cl)c1 [Compound 3, reference compound]
1
